System: MDA-MB-231
Assay: Cellular proliferation assay, IC50 of retinoids with/without cyclosporin A
Type: cell-based
Settings: Homo sapiens, without cyclosporin A, read-out: IC50 Without CsA
Measured parameter: IC50 (µM)
Field format: number, assumed µM, no unit text.

# query: IC50 | item CC1=C(/C=C/C(C)=C/C=C/C(C)=C/C(=O)Nc2ccc(O)cc2)C(C)(C)CCC1 [4-HPR, N-(4-hydroxyphenyl) retinamide] | system: MDA-MB-231 7.84

###

Test system: BT-474
Test: Cellular proliferation assay, IC50 of retinoids with/without cyclosporin A
Format: cell-based
Details: Homo sapiens, without cyclosporin A, read-out: IC50 Without CsA
Measured parameter: pIC50
Answer as the number alone; pIC50 is minus log10 of concentration in mol/L.

Which pIC50 reading was recorded for the molecule CC1=C(/C=C/C(C)=C/C=C/C(C)=C/C(=O)Nc2ccc(O)cc2)C(C)(C)CCC1 [4-HPR, N-(4-hydroxyphenyl) retinamide] ? 5.44
